Assay: PK analysis after p.o. administration of N-251 in fasted mice
Type: in vivo
Settings: male, ICR, mouse, plasma, po, p.o. 100 mg/kg, 0 to infinity
Description: To analyze the absorption kinetics of N-251, it was orally administered to fasted mice with dose of 210, 100, 68, 50, and 30 mg/kg. Blood sample was collected at 15 and 30 min as well as 1, 1.5, 2, 3, 4, and 6 h post-dose. Data were expressed as the mean (n = 6) ± SD. AUC and MRT after p.o. administration in fasting mice were calculated based on the trapezoidal rule. F was calculated with an AUC of 10 mg/kg of i.v. dose. […]
valueKind: AUC (ng·h/mL)
Output spec: scalar in ng·h/mL, unitless text.

Request: Can you look up the measured AUC of OCCCCCCC1COOC2(CCCCCCCCCCC2)OOC1 [N-251] for me?
Result: 5890

Origin of measurements: paper PMC6611044
